- experimentalTarget: NMDA receptor composed of four subunits including 2 sets of heterodimers of NR1 and NR2B (Homo sapiens, UniProt Q13224)
- Construct: host or cells: HEK293 (tetracycline-induced expression)
- Sequence (Q13224 27-1484, other chains not shown): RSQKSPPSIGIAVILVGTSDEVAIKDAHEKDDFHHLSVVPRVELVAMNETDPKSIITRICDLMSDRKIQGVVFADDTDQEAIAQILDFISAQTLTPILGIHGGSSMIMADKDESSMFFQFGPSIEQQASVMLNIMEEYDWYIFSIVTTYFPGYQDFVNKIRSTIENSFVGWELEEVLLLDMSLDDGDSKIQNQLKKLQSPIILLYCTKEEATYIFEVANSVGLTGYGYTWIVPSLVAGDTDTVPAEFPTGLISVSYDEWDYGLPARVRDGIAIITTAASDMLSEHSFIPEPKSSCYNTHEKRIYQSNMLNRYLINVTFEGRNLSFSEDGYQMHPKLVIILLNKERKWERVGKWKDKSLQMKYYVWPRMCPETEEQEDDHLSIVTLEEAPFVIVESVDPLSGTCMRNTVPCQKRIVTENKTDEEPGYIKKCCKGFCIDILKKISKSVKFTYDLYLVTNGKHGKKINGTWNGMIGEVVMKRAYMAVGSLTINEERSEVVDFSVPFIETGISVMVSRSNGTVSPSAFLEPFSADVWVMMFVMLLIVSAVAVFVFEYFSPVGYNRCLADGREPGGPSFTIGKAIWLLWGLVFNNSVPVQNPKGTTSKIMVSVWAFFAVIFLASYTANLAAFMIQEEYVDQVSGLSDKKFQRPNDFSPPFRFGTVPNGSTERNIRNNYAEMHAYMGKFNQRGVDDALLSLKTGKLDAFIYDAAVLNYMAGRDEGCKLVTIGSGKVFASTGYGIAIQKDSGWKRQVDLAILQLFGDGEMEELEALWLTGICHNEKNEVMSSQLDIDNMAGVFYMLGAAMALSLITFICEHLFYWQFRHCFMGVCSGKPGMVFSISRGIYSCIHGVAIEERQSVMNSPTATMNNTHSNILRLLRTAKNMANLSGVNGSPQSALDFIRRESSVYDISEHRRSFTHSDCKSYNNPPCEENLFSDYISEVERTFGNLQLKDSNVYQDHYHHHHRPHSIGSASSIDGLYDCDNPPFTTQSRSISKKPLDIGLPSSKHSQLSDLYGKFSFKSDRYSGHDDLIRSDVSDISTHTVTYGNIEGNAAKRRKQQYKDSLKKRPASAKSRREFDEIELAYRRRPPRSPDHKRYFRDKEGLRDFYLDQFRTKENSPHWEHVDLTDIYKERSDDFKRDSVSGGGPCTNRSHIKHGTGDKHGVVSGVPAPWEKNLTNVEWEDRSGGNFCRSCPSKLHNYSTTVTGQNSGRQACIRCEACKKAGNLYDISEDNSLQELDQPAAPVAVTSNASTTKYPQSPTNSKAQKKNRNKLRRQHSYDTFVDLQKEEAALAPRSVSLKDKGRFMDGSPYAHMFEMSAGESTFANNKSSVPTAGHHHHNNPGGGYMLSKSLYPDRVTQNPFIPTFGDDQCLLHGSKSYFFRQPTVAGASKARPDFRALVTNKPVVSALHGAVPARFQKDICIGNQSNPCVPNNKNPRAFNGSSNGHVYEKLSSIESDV
- procedureDetails: NR2B Ca2+ influx assay (FLIPR, Fluo-4) in HEK293 cells expressing human GRIN1 and GRIN2B
- Assay type: cell-based
- testConditions: HEK293, 10 μM final compound concentration, glutamic acid/glycine-induced Ca2+ influx, read-out: inhibitory rate (10 μM compound concentration)
Outcome label depends on inhibition at 10 µM relative to 90%: at/above gives True, below gives False.

Illustrative cases are given below, each with its answer.
Query: For this compound, is measured inhibition at 10 µM 90% or higher? COc1ccc(NC(=O)NCc2c(OC)ccc3ncn(C)c23)c(F)c1F [Example 259]
Response: False

Query: For this compound, is measured inhibition at 10 µM 90% or higher? COc1ccc2ncn(C)c2c1CNC(=O)Nc1ccc(C)c(F)c1 [Example 218]
Response: True

***
Query: For this compound, is measured inhibition at 10 µM 90% or higher? O=C(NCc1cccc2[nH]ncc12)c1ccc(F)c(Cl)c1 [Example 186]
Response: False

* * *

- experimentalTarget: NMDA receptor composed of four subunits including 2 sets of heterodimers of NR1 and NR2B (Homo sapiens, UniProt Q13224)
- Construct: host or cells: HEK293 (tetracycline-induced expression)
- procedureDetails: NR2B Ca2+ influx assay (FLIPR, Fluo-4) in HEK293 cells expressing human GRIN1 and GRIN2B
- Format: cell-based
- testConditions: HEK293, 10 μM final compound concentration, glutamic acid/glycine-induced Ca2+ influx, read-out: inhibitory rate (10 μM compound concentration)
Below, each of the compounds is paired with its reported inhibition at 10 µM value.
Provide the reading as a plain figure in %.

Please review the entries below; each comes with its answer.
Query: Check the records and state inhibition at 10 µM for `Cc1n[nH]c2cccc(CNC(=O)c3ccc(OC(F)(F)F)c(F)c3)c12`
Response: 87

Query: Check the records and state inhibition at 10 µM for `CCc1ccc2ncn(C)c2c1CNC(=O)c1cc(F)c(OC)c(F)c1`
Response: 93

***
Query: Check the records and state inhibition at 10 µM for `CCc1ccc2ncn(C)c2c1CNC(=O)c1ccc(OC(F)(F)F)nc1`
Response: 93

Query: Check the records and state inhibition at 10 µM for `COc1ccc2nc(C)n(C)c2c1CNC(=O)c1ccc(OC(F)F)c(Cl)c1`
Response: 87

Query: Check the records and state inhibition at 10 µM for `O=C(NCc1cccc2[nH]ncc12)c1ccc(OC(F)(F)F)nc1`
Response: 76

Query: Check the records and state inhibition at 10 µM for `O=C(NCc1c(C2CC2)ccc2[nH]ncc12)c1ccc(Cl)cc1`
Response: 92

Query: Check the records and state inhibition at 10 µM for `O=C(NCc1c(C2CC2)ccc2[nH]ncc12)c1cc(F)c(C(F)F)c(F)c1`
Response: 94

Query: Check the records and state inhibition at 10 µM for `COc1ccc2nc(C)n(C)c2c1CNC(=O)c1cnc(OC)c(F)c1`
Response: 57

Query: Check the records and state inhibition at 10 µM for `COc1ccc2ncn(C)c2c1CNC(=O)c1cnc(OC)c(F)c1`
Response: 92

Query: Check the records and state inhibition at 10 µM for `COc1ccc2nc(C)n(C)c2c1CNC(=O)c1cc(F)c(OC(F)F)c(F)c1`
Response: 87

Query: Check the records and state inhibition at 10 µM for `O=C(NCc1cccc2[nH]ncc12)c1cc(Cl)c(Cl)s1`
Response: 90
